Data provenance is PubChem BioAssay AID2235.

# targetOfAssay: Serine/threonine-protein phosphatase PP1-alpha catalytic subunit (Homo sapiens) (UniProt P62136)
# Sequence (P62136 whole entry, looked up): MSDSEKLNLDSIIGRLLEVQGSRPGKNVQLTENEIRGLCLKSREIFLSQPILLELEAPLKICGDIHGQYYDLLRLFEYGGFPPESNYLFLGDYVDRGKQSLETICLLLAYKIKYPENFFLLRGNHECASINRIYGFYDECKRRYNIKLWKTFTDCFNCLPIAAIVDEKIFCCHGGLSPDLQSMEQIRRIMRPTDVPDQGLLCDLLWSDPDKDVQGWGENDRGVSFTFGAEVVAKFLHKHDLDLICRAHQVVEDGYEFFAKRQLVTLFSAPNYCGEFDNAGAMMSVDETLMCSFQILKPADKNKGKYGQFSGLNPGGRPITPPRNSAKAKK
# methodNotes: inhibition of human PP1 catalytic subunit – biochemical, fluorescence, OMFP substrate, single point, counter-screen for PP5 inhibitor project, primary screen (AID 2235)
# assaySetup: purified PP1alpha, at 6.7 µM, hits give high values
In all, about 320,000 compounds went through this assay and about 2,800 (0.88%) were called active. This excerpt belongs to a sample that is enriched for actives.
Below: a set of entries, each annotated with reported inhibition.

{"compoundStructure": "CCO/N=C(/C)c1c(O)cc(-c2ccccc2)n(-c2ccccc2)c1=O", "reading": "-2.6% (inactive)"}
{"compoundStructure": "O=C(CN1CCN(Cc2ccccc2)CC1)NC(c1ccccc1)c1ccccc1", "reading": "10.6% (inactive)"}

Query: State the recorded inhibition for this entry: Fc1cccc(Cl)c1COc1ccc(-c2nnco2)cc1
Response: 0.3% (inactive)

Query: How about O=C(CN1CCc2ccccc21)NC(c1ccccc1)c1ccccc1 ?
Response: 17.5% (active)

Query: Further, for CSc1ccc(/C=N\NC(=O)CC(=O)NC(C)C)cc1 ?
Response: -3.41% (inactive)

Query: Moving on to the next compound: NS(=O)(=O)c1cccc(NC(=O)CN2CCCc3ccccc32)c1
Response: -0.85% (inactive)
